# System: NOMO1
# assay: cell viability relative to DMSO control; higher = less cytotoxic
# test-conditions: HPLM + 10% dialyzed FBS; 48 h; 0.19 µM
attribute-measured: cell viability
Numeric answer plus unit only.

Hi! What's the reported cell viability for CCOc1cc(CC(=O)N[C@@H](CC(C)C)c2ccccc2N2CCCCC2)ccc1C(=O)O on NOMO1? 126%

Another: Cc1ncc([N+](=O)[O-])n1CC(C)O (stereo not given) 110%

Another: C[C@H]1COC/2=C1/C(=O)C(=O)C3=C4CCCC(C)(C)C4=CC=C23 146%

Another: Nc1nc(Cl)nc2c1ncn2[C@@H]1O[C@H](CO)[C@@H](O)[C@@H]1F 18.2%

From here, focus on the item given below.
Hi! What's the reported cell viability for OC1=CC2=C(C(=C1)O)C(=O)\C(=C(/O2)C3=CC(=C(O)C=C3)O)O on NOMO1? 117%

* * *

# Tested on: P12-Ichikawa
# assay: cell viability relative to DMSO control; higher = less cytotoxic
# test-conditions: RPMI 5 mM glucose + 10% dialyzed FBS; 48 h; 15.4 µM
attribute-measured: cell viability
Numeric answer plus unit only.

Hi! What's the reported cell viability for CCOC(=O)\C1=C\[C@@H](OC(CC)CC)[C@H](NC(C)=O)[C@@H](N)C1 on P12-Ichikawa? 84.8%

Another: COc1cc(N2CCC(N(C)C)CC2)ccc1Nc1ncc(Cl)c(Nc2ccccc2P(C)(C)=O)n1 19.3%

Give one value of cell viability per listed compound.
1. OC(CN1CCN(c2cccc(Cl)c2)CC1)C(c1ccccc1)c1ccccc1 (stereo not drawn)
2. CCN1CCN(C(=O)Cc2ccc(Nc3ncc(F)c(Nc4ccc(C(=O)Nc5ccccc5Cl)cc4)n3)cc2)CC1
3. Cc1c[nH]c(-c2cnc(NCCNc3ccc(C#N)cn3)nc2-c2ccc(Cl)cc2Cl)n1
4. CC(C)C[C@H](NC(=O)[C@@H](O)[C@H](N)Cc1ccccc1)C(=O)O
5. Cn1cc(C[C@@H](N)C(=O)O)c2ccccc21
6. CC(C)(C)[C@H](NC(=O)c1ccc(N)c(Cl)c1)C(=O)N1CCC[C@H]1C(=O)N[C@H](C#N)CC(=O)O

1. 4.91%
2. 52.6%
3. 92.9%
4. 104%
5. 93%
6. 52.1%

* * *

# Tested on: NOMO1
# assay: cell viability relative to DMSO control; higher = less cytotoxic
# test-conditions: HPLM + 10% dialyzed FBS; 48 h; 15.4 µM
Please respond with t when measured cell viability is strictly beneath 80%, and with f in all other cases.

Examples with answers:
Input C[C@]12CCC\3=C\4CCC(=O)\C=C4CC[C@H]3[C@@H]1CC[C@@]2(O)CC#N ; condition: cell viability strictly below 80%. Does it hold? f

Another: Cc1ncc([N+](=O)[O-])n1CC(C)O (stereo not drawn) f

Another: CNC(=O)Nc1ccc(-c2nc(N3CC4CCC(C3)O4)c3cnn(C4CCC5(CC4)OCCO5)c3n2)cc1 t

Another: C[C@](N)(Cc1ccc(O)c(O)c1)C(=O)O t

Another: C[C@H]1COC/2=C1/C(=O)C(=O)C3=C4CCCC(C)(C)C4=CC=C23 f

Further cases:
Input CC(C)(O)/C=C\C(=O)[C@](C)(O)[C@H]1[C@H](O)C[C@]2(C)[C@@H]3CC=C4[C@@H](C=C(O)C(=O)C4(C)C)[C@]3(C)C(=O)C[C@@]12C ; condition: cell viability strictly below 80%. Does it hold? t

Another: COC(=O)\C1=C\CCN(C)C1 f

Another: CCOC(=O)\C1=C\[C@@H](OC(CC)CC)[C@H](NC(C)=O)[C@@H](N)C1 f

Another: CN1CCN(C(=O)O[C@H]2c3nccnc3C(=O)N2c2ccc(Cl)cn2)CC1 f

Another: O=C(/C=C/c1ccc(O)cc1)c1ccc(O)cc1O f

Another: CN1CCN(CCCN2c3ccccc3Sc3ccc(C(F)(F)F)cc32)CC1 t

Another: COc1cc(CNC(=O)CCCC/C=C/C(C)C)ccc1O t

Another: N[S+](=O)([O-])OC[C@@H]1C[C@@H](n2ccc3c(N[C@H]4CCc5ccccc54)ncnc32)C[C@@H]1O t

Another: CN1CCN(CCOc2cc(OC3CCOCC3)c3c(Nc4c(Cl)ccc5c4OCO5)ncnc3c2)CC1 t

* * *

# System: NOMO1
# assay: cell viability relative to DMSO control; higher = less cytotoxic
# test-conditions: HPLM + 10% dialyzed FBS; 48 h; 0.000781 µM
attribute-measured: cell viability
Numeric answer plus unit only.

Give one value of cell viability per listed molecule.
1. CN1CCN(CCOc2cc(OC3CCOCC3)c3c(Nc4c(Cl)ccc5c4OCO5)ncnc3c2)CC1
2. CCN(c1ccccc1)c1cc(NC)[n+](C)c(C)n1
3. CON(C)C(=O)N1/N=C(S[C@@]1(CCCN)C2=CC=CC=C2)/C3=CC(=CC=C3F)F
4. CC/1=C(\O)C(=O)\C=C2/C1=C/C=C3\[C@@]2(C)CC[C@@]4(C)[C@@H]5C[C@@](C)(CC[C@]5(C)CC[C@]34C)C(O)=O
5. C[C@]12CCC\3=C\4CCC(=O)\C=C4CC[C@H]3[C@@H]1CC[C@@]2(O)CC#N

["134%", "121%", "119%", "104%", "123%"]

Give one value of cell viability per listed molecule.
1. C[C@@]1(C(=O)Nc2ccc(F)nc2)CCCN1c1nc(Nc2cc(C3CC3)[nH]n2)c2cccn2n1
2. NC(=O)NO
3. CCN1CCCC1CNC(=O)c1cc([S+](N)(=O)[O-])ccc1OC (stereo not drawn)

1. 83.2%
2. 88.2%
3. 104%

* * *

# Tested on: P12-Ichikawa
# assay: cell viability relative to DMSO control; higher = less cytotoxic
# test-conditions: RPMI 5 mM glucose + 10% FBS; 48 h; 46.1 µM
I'd be grateful if you could share measured cell viability for these entries.
One number for each entry, in %.

Would you mind telling me what cell viability value was observed for COc1cc(N2CCC(N(C)C)CC2)ccc1Nc1ncc(Cl)c(Nc2ccccc2P(C)(C)=O)n1 ? 23.6

Another: CC(C)(O)c1cc2nc(-c3cnc(N)nc3)nc(N3CCOCC3)c2s1 48.8

Another: CC1(C)C(N(O)C(=O)Nc2ccc(Cl)cc2)N(c2ccc(Cl)cc2)C(=O)N1CC(=O)N/N=C/C=C/c1ccc([N+](=O)[O-])o1 (centres undefined) 52.4

From here, focus on the item given below.
Would you mind telling me what cell viability value was observed for CN1CCN(CCCN2c3ccccc3Sc3ccc(C(F)(F)F)cc32)CC1 ? 13.8

* * *

# System: P12-Ichikawa
# assay: cell viability relative to DMSO control; higher = less cytotoxic
# test-conditions: RPMI 5 mM glucose + 10% dialyzed FBS; 48 h; 0.569 µM
I'd be grateful if you could share measured cell viability for these entries.
One number for each entry, in %.

Solved entries (count: 3):
Would you mind telling me what cell viability value was observed for NC(=O)c1ncn([C@@H]2O[C@H](CO)[C@@H](O)[C@H]2O)c1O ? 123

Another: CCOC(=O)Nc1ccc(NCc2ccc(F)cc2)nc1N 112

Another: CC(NCCc1ccc(O)cc1)C(O)c1ccc(O)cc1 (stereo not given) 107

Give one value of cell viability per listed molecule.
1. CN(C)C1=C(Br)C=C(C=C1)C\2NC3=C(\C4=C2C(=O)CC(C)(C)C4)C5=CC=CC=C5C=C3 (stereo not given)
2. N=C1N[C@H]2[C@H](CS[C@H]2CCCCC(=O)O)N1

1. 102
2. 121

* * *

I'd be grateful if you could share measured cell viability for these entries.
# System: SEM cells
# assay: cell viability relative to DMSO control; higher = less cytotoxic
# test-conditions: HPLM + 10% dialyzed FBS; 48 h; 46.1 µM
Numbers only, in %.

Solved entries (count: 5):
Would you mind telling me what cell viability value was observed for CN(C)/N=N/c1nc[nH]c1C(N)=O ? 105

Another: OC[C@H]1O[C@@H](Oc2cc(O)cc(/C=C/c3ccc(O)cc3)c2)[C@H](O)[C@@H](O)[C@@H]1O 115

Another: C[C@@H](O)[C@@H]1NC(=O)[C@H](CCCCN)NC(=O)[C@@H](Cc2c[nH]c3ccccc23)NC(=O)[C@H](Cc2ccccc2)NC(=O)[C@@H](NC(=O)[C@H](N)Cc2ccccc2)CSSC[C@@H](C(=O)N[C@H](CO)[C@@H](C)O)NC1=O 84.6

Another: COc1cc(N2CCC(N(C)C)CC2)ccc1Nc1ncc(Cl)c(Nc2ccccc2P(C)(C)=O)n1 5.99

Another: CN1CCN(CCOc2cc(OC3CCOCC3)c3c(Nc4c(Cl)ccc5c4OCO5)ncnc3c2)CC1 30.3

Give one value of cell viability per listed compound.
1. CCOC(=O)Nc1ccc(NCc2ccc(F)cc2)nc1N
2. O=[S+]([O-])(c1cccc2cnccc12)N1CCCNCC1
3. O=C(Nc1cccnn1)N1CCC(=Cc2cccc(Oc3ccc(C(F)(F)F)cn3)c2)CC1

[101, 115, 75.6]

Give one value of cell viability per listed compound.
1. CC(C)[C@H](N)C(=O)OCCOC[N]1C=NC2=C1\N=C(N)/NC2=O
2. CC1(C)C(N(O)C(=O)Nc2ccc(Cl)cc2)N(c2ccc(Cl)cc2)C(=O)N1CC(=O)N/N=C/C=C/c1ccc([N+](=O)[O-])o1 (stereo not drawn)

1: 107; 2: 3.81
